Test system: PC3 cells
Experiment: XTT assay for cell viability, PC3 cells
Format: cell-based, human
Settings: Homo sapiens, PC-3, cell viability
pIC50: −log10 of the molar value.
quantity_name: pIC50

Examples with answers:
Ask: Please give the measured pIC50 for this molecule: CC1CN(c2nc(-c3ccc(NC(=O)Nc4ccc(C(=O)N(C)C)cc4)c(F)c3)nc3cc(-c4cncnc4)ccc23)CC(C)O1 (centres unmarked) [Example 132]
Result: 5.00 to 6.70

Ask: Request the reported pIC50 associated with CN(C)C1CCN(C(=O)c2ccc(NC(=O)Nc3ccc(-c4nc(N5CCOCC5)c5ccc(C(C)(C)O)cc5n4)cc3)cc2)C1 (stereo in doubt) [Example 289]
Result: 5.00 to 6.70

Ask: What does the record list as pIC50 for CN(C)C(=O)c1ccc(NC(=O)Nc2ccc(-c3nc(N4CCOCC4)c4ncc(-c5cncnc5)cc4n3)c(F)c2)cc1 [Example 250] ?
Result: 5.00 to 6.70

Ask: # input molecule: CN1CCN(C(=O)c2ccc(NC(=O)Nc3ccc(-c4nc(N5CCOCC5)c5cc(F)c(-c6cccnc6)cc5n4)cc3)cc2)CC1 [Example 4] ; wanted: its pIC50
Result: > 7.00

Ask: For the molecule shown here, CC(=O)c1ccc(-c2ccc3c(N4CCOCC4)nc(-c4ccc(NC(=O)Nc5ccc(C(=O)N(C)C)cc5)cc4)nc3c2)o1 [Example 224] , give the reported pIC50.
Result: 5.00 to 6.70

Okay, next one:
Ask: Please report the recorded pIC50 for CN(C)C(=O)c1ccc(NC(=O)Nc2ccc(-c3nc(N4CCOCC4)c4ncc(-c5cncnc5)cc4n3)cc2)cc1 [Example 9] .
Result: > 7.00

###

Test system: PC3 cells
Assay: XTT assay for cell viability, PC3 cells
Assay type: cell-based, human
Conditions: Homo sapiens, PC-3, cell viability
quantity_name: IC50

Ask: Give the reported IC50 for CN(C)C(=O)c1ccc(NC(=O)Nc2ccc(-c3nc(N4CCOCC4)c4ccc(-c5ccc(CO)o5)cc4n3)c(F)c2)cc1 [Example 274] (system: PC3 cells).
Result: 0.201 to 10 µM

Ask: Param readout= IC50; system= PC3 cells; entry= CN(C)C(=O)c1ccc(NC(=O)Nc2ccc(-c3nc(N4CCOCC4)c4ccc(-c5ccncc5)cc4n3)cc2)cc1 [Example 58] ; returns value.
Result: 0.501 to 5 µM

Ask: Lookup: IC50 / PC3 cells / CN(C)CCN(C)C(=O)c1ccc(NC(=O)Nc2ccc(-c3nc(N4CCOCC4)c4ccc(-c5ccncc5)cc4n3)cc2)cc1 [Example 72]
Result: 0.1 to 0.5 µM

Ask: Short answer please: IC50, PC3 cells, entry CN(C)C(=O)c1ccc(NC(=O)Nc2ccc(-c3nc(N4CCOCC4)c4ccc(-c5ccnnc5)cc4n3)cc2)cc1 [Example 86]
Result: 0.201 to 10 µM

Ask: Item CN(C)CCn1cc(-c2ccc3c(N4CCOCC4)nc(-c4ccc(NC(=O)Nc5ccc(C(=O)N(C)C)cc5)cc4)nc3c2)cn1 [Example 83] with PC3 cells - IC50?
Result: 0.201 to 10 µM

Ask: Hello, I am looking for reported IC50 with PC3 cells for CN(C)CCN(C)C(=O)c1ccc(NC(=O)Nc2ccc(-c3nc(N4CCOCC4)c4ccc(-c5cncnc5)cc4n3)cc2)cc1 [Example 44] . Could you help?
Result: < 0.1 µM

Ask: # query: IC50 | item CN(C)C(=O)c1ccc(NC(=O)Nc2ccc(-c3nc(N4CCOCC4)c4ncc(-c5cccnc5)cc4n3)cc2)cc1 [Example 46] | system: PC3 cells
Result: < 0.1 µM

Ask: For the record CN(C)C(=O)c1ccc(NC(=O)Nc2ccc(-c3nc(N4CCOCC4)c4ncc(-c5cccc(S(C)(=O)=O)c5)cc4n3)cn2)cc1 [Example 115] , what value of IC50 is listed for PC3 cells?
Result: 0.201 to 10 µM

###

Target: PI3Kα (wild-type), P110/P85α (Homo sapiens)
Sequence (P42336 whole entry, one chain of several): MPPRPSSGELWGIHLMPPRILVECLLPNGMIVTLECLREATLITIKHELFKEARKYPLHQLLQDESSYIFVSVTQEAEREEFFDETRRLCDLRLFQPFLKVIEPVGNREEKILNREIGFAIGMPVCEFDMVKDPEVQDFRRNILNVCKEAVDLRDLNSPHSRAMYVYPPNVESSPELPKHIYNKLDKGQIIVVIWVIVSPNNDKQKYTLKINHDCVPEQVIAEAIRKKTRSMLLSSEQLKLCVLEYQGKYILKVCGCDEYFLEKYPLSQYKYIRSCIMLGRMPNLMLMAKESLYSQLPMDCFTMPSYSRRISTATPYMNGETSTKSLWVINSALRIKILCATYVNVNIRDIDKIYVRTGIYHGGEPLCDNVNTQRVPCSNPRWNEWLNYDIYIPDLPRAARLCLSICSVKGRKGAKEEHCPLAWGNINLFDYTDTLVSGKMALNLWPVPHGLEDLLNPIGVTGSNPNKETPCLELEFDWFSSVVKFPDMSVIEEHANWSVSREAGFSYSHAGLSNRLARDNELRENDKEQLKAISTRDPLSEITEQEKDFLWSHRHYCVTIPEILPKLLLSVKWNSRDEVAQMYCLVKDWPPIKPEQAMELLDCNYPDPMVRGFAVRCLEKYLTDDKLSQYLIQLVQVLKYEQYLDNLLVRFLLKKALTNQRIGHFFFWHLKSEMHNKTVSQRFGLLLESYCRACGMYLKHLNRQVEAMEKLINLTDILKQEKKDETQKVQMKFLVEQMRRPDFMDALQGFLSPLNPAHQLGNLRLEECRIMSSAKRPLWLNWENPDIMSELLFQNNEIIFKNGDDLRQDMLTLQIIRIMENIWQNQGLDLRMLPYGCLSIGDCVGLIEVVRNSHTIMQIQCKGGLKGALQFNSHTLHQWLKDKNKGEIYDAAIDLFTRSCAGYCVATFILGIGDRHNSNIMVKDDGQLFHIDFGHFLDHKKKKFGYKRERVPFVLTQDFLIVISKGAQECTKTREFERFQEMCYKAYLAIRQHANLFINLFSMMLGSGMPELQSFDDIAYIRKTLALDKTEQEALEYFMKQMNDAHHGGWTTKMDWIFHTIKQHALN
Test: PI3 Kinase TR-FRET assay, PI3Kα (wild-type)
pIC50: −log10 of the molar value.
quantity_name: pIC50

Some solved cases for reference:
Ask: Which pIC50 value belongs to CN(C)C(=O)c1ccc(NC(=O)Nc2ccc(-c3nc(N4CCOCC4)c4ncc(-c5ccc(CO)o5)cc4n3)cc2F)cc1 [Example 218] ?
Result: > 7.30

Ask: Which value of pIC50 has been reported for Cc1noc(C)c1-c1cnc2c(N3CCOCC3)nc(-c3ccc(NC(=O)Nc4ccc(C(=O)N(C)C)cc4)cc3)nc2c1 [Example 120] in the records?
Result: > 7.30

Ask: So what's the measured pIC50 for this one? CN(C)C(=O)c1ccc(NC(=O)Nc2ccc(-c3nc(N4CCOCC4)c4ccc(-c5cccnc5NCCO)cc4n3)cc2)cc1 [Example 283]
Result: 5.00 to 6.70

Continuing:
Ask: Query: pIC50; subject: CN(C)C(=O)c1ccc(NC(=O)Nc2ccc(-c3nc(N4CCOCC4)c4ncc(-c5cnc(N)nc5)cc4n3)cc2)cc1 [Example 92]
Result: > 7.30

###

Attribute: IC50
Biological target: PI3Kα mutation E545K (Homo sapiens, UniProt P42336, E545K)
Sequence (P42336 whole entry E545K): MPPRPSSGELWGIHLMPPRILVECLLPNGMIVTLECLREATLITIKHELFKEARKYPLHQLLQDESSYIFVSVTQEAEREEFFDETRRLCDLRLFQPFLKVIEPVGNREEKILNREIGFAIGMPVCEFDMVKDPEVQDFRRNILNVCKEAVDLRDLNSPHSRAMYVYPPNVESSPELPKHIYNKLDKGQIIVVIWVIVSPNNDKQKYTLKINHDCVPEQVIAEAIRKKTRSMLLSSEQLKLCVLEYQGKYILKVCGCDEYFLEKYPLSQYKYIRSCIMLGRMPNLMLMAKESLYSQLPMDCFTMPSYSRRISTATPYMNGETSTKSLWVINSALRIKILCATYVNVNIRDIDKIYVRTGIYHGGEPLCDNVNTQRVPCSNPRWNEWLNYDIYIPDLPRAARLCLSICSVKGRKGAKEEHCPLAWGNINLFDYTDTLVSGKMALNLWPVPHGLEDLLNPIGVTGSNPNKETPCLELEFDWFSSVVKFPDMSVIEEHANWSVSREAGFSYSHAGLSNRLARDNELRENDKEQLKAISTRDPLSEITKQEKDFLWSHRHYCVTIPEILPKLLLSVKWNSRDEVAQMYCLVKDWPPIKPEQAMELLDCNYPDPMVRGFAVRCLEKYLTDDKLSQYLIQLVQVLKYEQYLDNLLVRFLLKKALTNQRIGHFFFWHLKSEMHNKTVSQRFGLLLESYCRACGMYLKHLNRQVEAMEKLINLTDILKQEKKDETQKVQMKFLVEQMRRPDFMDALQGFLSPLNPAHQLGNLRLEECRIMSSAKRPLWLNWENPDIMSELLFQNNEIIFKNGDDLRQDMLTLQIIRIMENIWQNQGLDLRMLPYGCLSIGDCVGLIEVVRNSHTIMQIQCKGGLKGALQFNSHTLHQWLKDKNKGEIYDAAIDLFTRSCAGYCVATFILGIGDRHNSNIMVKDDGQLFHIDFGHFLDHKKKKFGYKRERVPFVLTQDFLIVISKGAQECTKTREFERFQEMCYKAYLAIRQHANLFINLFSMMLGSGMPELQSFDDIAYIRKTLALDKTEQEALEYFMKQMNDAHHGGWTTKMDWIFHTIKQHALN
Sequence (P27986 whole entry partner): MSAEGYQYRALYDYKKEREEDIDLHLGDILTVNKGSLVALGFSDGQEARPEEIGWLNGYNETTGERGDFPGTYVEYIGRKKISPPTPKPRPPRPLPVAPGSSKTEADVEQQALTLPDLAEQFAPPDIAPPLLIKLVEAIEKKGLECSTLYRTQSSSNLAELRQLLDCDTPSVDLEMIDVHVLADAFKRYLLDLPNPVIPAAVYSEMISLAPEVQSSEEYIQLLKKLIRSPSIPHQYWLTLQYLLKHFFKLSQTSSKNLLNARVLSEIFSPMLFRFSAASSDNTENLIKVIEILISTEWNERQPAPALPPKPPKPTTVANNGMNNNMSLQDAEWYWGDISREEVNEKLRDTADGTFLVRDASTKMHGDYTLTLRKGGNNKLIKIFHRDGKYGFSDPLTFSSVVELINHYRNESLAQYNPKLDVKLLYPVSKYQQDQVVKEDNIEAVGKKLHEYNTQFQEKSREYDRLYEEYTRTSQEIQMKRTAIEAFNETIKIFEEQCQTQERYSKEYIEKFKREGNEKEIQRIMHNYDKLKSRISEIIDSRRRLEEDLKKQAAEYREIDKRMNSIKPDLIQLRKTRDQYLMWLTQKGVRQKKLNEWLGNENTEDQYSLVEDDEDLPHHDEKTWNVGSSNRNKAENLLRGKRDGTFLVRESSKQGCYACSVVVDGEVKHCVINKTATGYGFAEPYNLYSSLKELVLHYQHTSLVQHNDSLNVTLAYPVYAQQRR
Assay: PI3 Kinase TR-FRET assay, PI3Kα mutation E545K
Conditions: read-out: inhibition of PI3Kα mutation E545K, IC50

Answered cases to consult:
Ask: Which value of IC50 has been reported for CN(C)C(=O)c1ccc(NC(=O)Nc2ccc(-c3nc(N4CCOCC4)c4ccc(-c5cccnc5)cc4n3)cc2)c(F)c1 in the records?
Result: < 500 nM

Ask: Param item = CN(C)C(=O)c1ccc(NC(=O)Nc2ccc(-c3nc(N4CCOCC4)c4ccc(-c5cncnc5)cc4n3)cc2)c(F)c1 ; retrieve measured IC50.
Result: < 500 nM

Proceed to the following item.
Ask: Record request: IC50 value, item CN(C)C(=O)c1ccc(NC(=O)Nc2ccc(-c3nc(N4CCOCC4)c4ccc(-c5cccnc5F)cc4n3)cc2)c(F)c1
Result: < 500 nM

###

Target or system mTOR kinase (Homo sapiens): recorded IC50 listed per item.

Ask: Item under review: Cc1noc(C)c1-c1ccc2c(N3CCOCC3)nc(-c3ccc(NC(=O)Nc4ccc(C(=O)N(C)C)cc4)cc3)nc2c1 [Example 121] . Reported IC50?
Result: < 50 nM

Ask: # IC50 lookup, item CN(C)[C@@H]1CCN(C(=O)c2ccc(NC(=O)Nc3ccc(-c4nc(N5CCOCC5)c5cc(F)c(-c6cccnc6)cc5n4)cc3)cc2)C1 [Example 200]
Result: < 50 nM

Ask: Dear colleague, I am looking for the recorded IC50 of the following molecule: CN(C)C(=O)c1ccc(NC(=O)Nc2ccc(-c3nc(N4CCOCC4)c4ccc(-c5cccc(O)c5)cc4n3)cc2)cc1 [Example 41]
Result: 50 to 200 nM

Ask: # lookup: IC50 of CN(C)C1CCN(C(=O)c2ccc(NC(=O)Nc3ccc(-c4nc(N5CCOCC5)c5ccc(-c6cncnc6)cc5n4)cc3F)cc2)C1 (stereo in doubt) [Example 207]
Result: < 50 nM

Ask: Using the record for CN(C)CCN(C)C(=O)c1ccc(NC(=O)Nc2ccc(-c3nc(N4CCOCC4)c4ccc(-c5ccncc5)cc4n3)cc2)cc1 [Example 72] , report its IC50.
Result: < 50 nM

Ask: What IC50 value was documented for this molecule, CN(C)C(=O)c1ccc(NC(=O)Nc2ccc(-c3nc(N4CCOCC4)c4ccc(-c5cnn(C)c5)cc4n3)cc2)cc1 [Example 22] ?
Result: < 50 nM

###

Target: PI3Kα (wild-type), P110/P85α (Homo sapiens)
Test: PI3 Kinase TR-FRET assay, PI3Kα (wild-type)
Reported values of IC50 for individual entries

Solved entries (count: 2):
Ask: Query (compound): CN(C)C(=O)c1ccc(NC(=O)Nc2ccc(-c3nc(N4CCOCC4)c4ncc(-c5ccnnc5)cc4n3)cc2)cc1 ; field requested: IC50
Result: < 50 nM

Ask: Could you tell me which IC50 is on file for Cc1noc(C)c1-c1ccc2c(N3CCOCC3)nc(-c3ccc(NC(=O)Nc4ccc(C(=O)N(C)C)cc4)cc3F)nc2c1 ?
Result: 50 to 200 nM

Continuing:
Ask: Any idea what its IC50 is? The compound is COc1ccc(-c2ccc3c(N4CCOCC4)nc(-c4ccc(NC(=O)Nc5ccc(C(=O)N(C)C)cc5)cc4)nc3c2)cn1
Result: < 50 nM

Ask: Sample Cc1ccc(-c2ccc3c(N4CCOCC4)nc(-c4ccc(NC(=O)Nc5ccc(C(=O)N6CCC(N(C)C)CC6)cc5)cc4)nc3c2)o1 — what was its IC50?
Result: 201 to 10000 nM

Ask: Recorded IC50 for Cc1ccc(-c2ccc3c(N4CCOCC4)nc(-c4ccc(NC(=O)Nc5ccc(C(=O)N(C)C)cc5)cc4F)nc3c2)o1 , please?
Result: 50 to 200 nM

Ask: I would be grateful if you could share the reported IC50 for CN(C)C(=O)c1ccc(NC(=O)Nc2ccc(-c3nc(N4CCOCC4)c4ccc(-c5cc6ccccc6o5)cc4n3)cc2)cc1 .
Result: 201 to 10000 nM
